Tested on: SK-OV-3
Experiment: NCI tumour cell line growth inhibition, 48 h
Active and inactive are the calls of the source. Cut-off read from the data, not from the text of the source: active = GI50 up to about 1.1 µM and inactive = higher.
measuredProperty: GI50

# annotated cases, reported GI50 shown
compound	targetEntity	GI50
Clc1ccc(C2ON=C(c3ccccc3)N2C23CC4CC(CC(C4)C2)C3)c(Cl)c1 (configuration not stated)	SK-OV-3	> 10 µM (inactive)
COc1ccccc1/C=C1\S/C(=N/Nc2nc(C)c(C(C)=O)s2)NC1=O	SK-OV-3	74.1 µM (inactive)
O=C(O)c1cccc(Nc2c(C(=O)O)cccc2[N+](=O)[O-])c1	SK-OV-3	> 100 µM (inactive)
O=c1c2cc(Br)ccc2nc(-c2ccccc2Cl)n1NCC1(O)OCC(O)C(O)C1O (configuration not stated)	SK-OV-3	> 100 µM (inactive)
COc1ccc2c(c1)Cc1cc(/N=[N+](\[O-])c3ccc4c(c3)Cc3cc(OC)ccc3-4)ccc1-2	SK-OV-3	> 100 µM (inactive)

# batch: return GI50 for each of the 2 compounds below
1. C=C(CC[C@@H](C)[C@H]1CC[C@H]2[C@@H]3C[C@@H](O)[C@H]4C[C@@H](O)CC[C@]4(CO)[C@H]3CC[C@]12C)C(C)C
2. CC(=O)O[C@@H]1CC[C@@]2(C)C(CC[C@H]3[C@@H]4CC[C@H]([C@H](C)CCc5nc6cc(C)ccc6[nH]5)[C@@]4(C)CC[C@@H]32)C1 (some centres not stated)

Response:
1. 9.1 µM (inactive)
2. > 100 µM (inactive)

###

System: ACHN
Experiment: NCI tumour cell line growth inhibition, 48 h
Calls of active or inactive are those of the source. No stated cut-off is given here; in the data, active = GI50 up to about 1.1 µM and inactive = higher.
Please state which outcome applies, choosing from YES for active, NO for inactive

Consider the worked cases shown below.
compound	targetEntity	categoryLabel
C[C@@H]1C[C@H](O)[C@]2(O)O[C@@H]3C[C@@]4(C=O)[C@@H](CC=C5[C@@H]4CC[C@]4(C)[C@@H](C6=CC(=O)OC6)CC[C@]54O)C[C@H]3O[C@@H]2O1	ACHN	YES
CCOC(=O)[C@H]1Nc2ccc(O)cc2C2c3ccccc3CC21 (stereo partly specified)	ACHN	NO
CC(C)OC1=C(CC2(C)OCCO2)C(=O)C12OCCO2	ACHN	NO
C=Cc1c(-c2ccccc2)cnc2[nH]c3ccccc3c12	ACHN	NO
O=c1oc2ccccc2cc1-c1cn2c(n1)sc1ccccc12	ACHN	NO

Query: Called result for "c1cc2c(cc1C1=NCCN1)c1cc(C3=NCCN3)ccc1n2CC1CCCCC1"
Response: NO

###

Test system: HT-29
Experiment: NCI tumour cell line growth inhibition, 48 h
Active and inactive are the calls of the source. No stated cut-off is given here; in the data, active = GI50 up to about 1.1 µM and inactive = higher.
measuredProperty: GI50

# annotated cases, reported GI50 shown
molecule	reading
C=C(CC[C@@H](C)[C@H]1CC[C@H]2[C@@H]3C[C@@H](O)[C@H]4C[C@@H](O)CC[C@]4(CO)[C@H]3CC[C@]12C)C(C)C	1.98 µM (inactive)
COc1cc(/C=C2\C(=O)N(c3ccccc3)C(c3ccccc3)S2(=O)=O)cc(OC)c1OC (centres undefined)	19.5 µM (inactive)
CC1(C)OC[C@@H]([C@H](C=O)OCc2ccccc2)O1	> 100 µM (inactive)
CCCNc1[nH]c(C(C)=O)c(N)c1C(=S)Nc1ccccc1	20 µM (inactive)
c1ccc(CSc2nc(N3CCOCC3)c3cn[nH]c3n2)cc1	30.8 µM (inactive)
C[C@]12CCNC(=O)C=C1CC[C@@H]1C2CC[C@@]2(C)C1CC[C@@H]2OC(=O)COc1ccc(N(CCCl)CCCl)cc1 (some centres undefined)	8.59 µM (inactive)

# batch: return GI50 for each of the 3 molecules below
1. CCCc1nnc2sc(COc3ccc(OCc4nn5c(CCC)nnc5s4)c(Cl)c3)nn12
2. O=C1CCC2C(O)c3cc4c(cc3C(c3ccc5c(c3)OCO5)N12)OCO4 (centres undefined)
3. COc1cc(C2C(C(=O)Nc3ccccc3)=C(C)NC(C)=C2C(=O)Nc2ccccc2)ccc1O

Response:
1. 29.4 µM (inactive)
2. > 100 µM (inactive)
3. 18.7 µM (inactive)

###

For each record, write down the corresponding GI50.
Test system: SF-539
Experiment: NCI tumour cell line growth inhibition, 48 h
Active and inactive are the calls of the source. No stated cut-off is given here; in the data, active = GI50 up to about 1.1 µM and inactive = higher.

# annotated cases, reported GI50 shown
compound	GI50
Cc1n(CC(=O)c2ccc([N+](=O)[O-])cc2)c2c([n+]1CC(C)C)C(=O)c1ccccc1C2=O	< 0.01 µM (active)
c1csc(-c2ccc(-c3ccsc3)s2)c1	68.5 µM (inactive)
C#CC1(O)C(COP(=O)(O)OCC2OC(n3ccc(NCCCCCCCCCCCCCCCCCC)nc3=O)C(O)C2O)OC(n2ccc(N)nc2=O)C1O (centres undefined)	1.16 µM (inactive)

# batch: return GI50 for each of the 2 compounds below
1. O=[N+]([O-])c1nccn1CCCNCCCn1ccnc1[N+](=O)[O-]
2. CC(C)OC1=C(CC2(C)OCCO2)C(=O)C12OCCO2

Response:
1: > 100 µM (inactive); 2: > 100 µM (inactive)

###

For each record, write down the corresponding GI50.
System: MDA-MB-435
Assay: NCI tumour cell line growth inhibition, 48 h
Activity calls are given as the source filed them. Cut-off read from the data, not from the text of the source: active = GI50 up to about 1.1 µM and inactive = higher.

# annotated cases, reported GI50 shown
molecule	GI50
CC(=O)O[C@@H]1CC[C@@]2(C)C(CC[C@H]3[C@@H]4CC[C@H]([C@H](C)CCc5nc6cc(C)ccc6[nH]5)[C@@]4(C)CC[C@@H]32)C1 (stereo not given in full)	> 100 µM (inactive)
c1ccc2c(CC3NCCN3)cccc2c1	> 100 µM (inactive)
CCOC(=O)/C(=N\Nc1ccc(-n2c(C)nc3ccc(Br)cc3c2=O)cc1)C(C)=O	50.6 µM (inactive)
CCCC(=O)OCC1OC(n2cc(F)c(=O)[nH]c2=O)C(F)C1OC(=O)CCC (stereo not given)	51.5 µM (inactive)

Query: If you can, please state the reported GI50 value of Cc1ccc(S(=O)(=O)NNC2(NS(=O)(=O)c3ccc(Cl)cc3)C(Cl)=C(Cl)C(=O)c3ccccc32)cc1 (stereo not given) .
Response: 18.8 µM (inactive)

###

System: UACC-257
Assay: NCI tumour cell line growth inhibition, 48 h
The source made the active and inactive calls. Rule as the data show it: active = GI50 up to about 1.1 µM and inactive = higher.
Please state which outcome applies, choosing from T for active, F for inactive

Consider the worked cases shown below.
compound	categoryLabel
Cc1c(C)c(S(=O)(=O)N(CCCN)OCCCN)c(C)c2c1OC(C)(C)C2	F
Cc1n(CC(=O)c2ccc([N+](=O)[O-])cc2)c2c([n+]1CC(C)C)C(=O)c1ccccc1C2=O	T
COc1cccc(CCn2c(N)c(-c3cc(Cl)cc(Cl)c3)c3ccc([N+](=O)[O-])cc3c2=O)c1	F
CC(C)CC(O)P(=O)(O)O.NC1CCCCC1 (stereo not given)	F

Turning now to a further compound:
Query: Called result for "CC(C)(C)NNC(=O)/C(=C/c1ccc([N+](=O)[O-])cc1)NC(=O)c1ccccc1"
Response: F

###

System: EKVX
Experiment: NCI tumour cell line growth inhibition, 48 h
Activity calls are given as the source filed them. No stated cut-off is given here; in the data, active = GI50 up to about 1.1 µM and inactive = higher.
measuredProperty: GI50

compound	reading
O=C1c2cccc(O)c2C(=O)c2c(OC3OC(CO)C(O)C(O)C3O)cccc21 (stereo not given)	32.7 µM (inactive)
CN(C)c1ccc2c(NCCCCCCNc3ccnc4cc(N(C)C)ccc34)ccnc2c1	36.1 µM (inactive)
CCCCCCCCCCCCCCCCCCOCC(CCP(=O)(CP(=O)(O)O)Oc1ccccc1)OCCCCCCCCCCCCCCCCCC (stereo not given)	> 100 µM (inactive)

# batch: return GI50 for each of the 6 compounds below
1. [N-]=[N+]=NC(c1cn(C2CC(O)C(CO)O2)c(=O)[nH]c1=O)C(Br)Br (stereo not given)
2. Cc1ccc(N2Cc3c(ccc4ccccc34)OP2(=S)N2CCCC2)cc1 (stereo not given)
3. O=C(O)/C(Cl)=C(\Cl)Nc1cccc(C(F)(F)F)c1
4. Cc1c2ccccc2c(C2C3C(=O)N(c4ccc(Br)cc4)C(=O)C3ON2C(C(N)=O)c2ccccc2)c2ccccc12 (stereo not given)
5. COC(=O)CCC(=O)CC(=O)C(=O)Nc1c(Cl)cc([N+](=O)[O-])cc1Cl
6. O=C(CC1Sc2ccccc2NC1=O)Nc1ccccc1[N+](=O)[O-] (stereo not given)

Response:
["> 100 µM (inactive)", "> 100 µM (inactive)", "> 100 µM (inactive)", "5.28 µM (inactive)", "51.8 µM (inactive)", "> 100 µM (inactive)"]

Query: Recall the recorded GI50 for "CC(=O)N(CCCCNC(=O)C(F)(F)F)CCCNC(=O)C(F)(F)F" with EKVX and state it.
Response: > 100 µM (inactive)

###

System: MOLT-4
Test: NCI tumour cell line growth inhibition, 48 h
Active and inactive are the calls of the source. Rule as the data show it: active = GI50 up to about 1.1 µM and inactive = higher.
Please state which outcome applies, choosing from active, inactive

Consider the worked cases shown below.
molecule	categoryLabel
NS(=O)(=O)c1nnc(NC(=O)c2ccccc2)s1	inactive
NC1=NCC(c2ccccn2)C1c1ccc(F)cc1 (stereo unspecified)	inactive
COc1ccc2c(c1)c1c3c(ccc4ncn2c43)N(CCO)CCN=1	active
COc1c(O)c(C=O)c2c(O)c(-c3c(C)cc4c(C(C)C)c(OC)c(O)c(C=O)c4c3O)c(C)cc2c1C(C)C	inactive
CS(=O)(=O)OCCN(CCOS(C)(=O)=O)c1ccc(/C=N/c2cccc(Cl)c2)cc1	active
CCOC(=O)C(=C=Cc1cccs1)C(=O)c1ccccc1	inactive

Turning now to a further molecule:
Query: Called result for "COc1ccc(C(=O)C/C(=N/NC(N)=S)C(=O)Nc2ccccc2)cc1"
Response: inactive

Each recorded value in this set is attributed to ChEMBL document CHEMBL1201862.
